Assign apparent KD of MS2 coat protein to each entry below.
system: MS2 coat protein; assay: apparent KD of MS2 coat protein; designed switch direction (-1 OFF switch, 1 ON switch): -1; higher = weaker reporter binding; conditions: input ligand: none
One number for each entry, in nM.

Reference set (8 entries):
1. CGGUGUAGAGGAUAUACGUGAAUAUUAUUAGAUAAUAAUUUACAUGAGGAUCACCCAUGUAGAAGGCUAUAGCG [JR_Ex2_Sub083] (Eterna round: R97, puzzle: Exclusion 2) | 20.1
2. ACAAGCUUAAUCAGUAUGAACAUGAGGAUCACCCAUGUAAAAGGGAAGACAAUUGGGUUAUUUAAAGCUCGUCUUAU [JR_STOV1_Sub016] (Eterna round: R97, puzzle: Sensor, turn-off variant 1) | 67.2
3. GUACUGACAGGAUAUACAUGAGGAUCACCCAUGUGCCUUAAUGCUACAAAAGUAGCGAGUAGAAGGGUCUGUAC [Omei Ex3 Model Bachelor's Dilema v12] (Eterna round: R97, puzzle: Exclusion 3) | 20.7
4. GUCGUGCAGCUUUGCUGUACGAGUACAUGAGGAUCACCCAUGUAGGAUAUGGUACGCUUUGCGUGCUAGAAGGAUAUGUGUAGC [salish99_ExNG3_r04_503] (Eterna round: R96, puzzle: Exclusion NG 3) | 37.1
5. AAUUUCAUUGUGAGGAUAUGCCCAAAUAAAAGCGGGCAGAAGGCACAUGAGGAUCACCCAUGUCCUGCGGUUAU [salish99_bmx4_r4_152] (Eterna round: R97, puzzle: Brourd's mod of Exclusion 4) | 37.5
6. AGGUGCUUCUGGAGACAUGAGGAUCACCCAUGUCGAGUCAGCGAGGAUAUCGGUAAGGCAUGUGAUGAGAAGGCGCAGACCGAU [Ex NG3 #51] (Eterna round: R96, puzzle: Exclusion NG 3) | 26.4
7. GGAUGCUGAGUAAGGAUAUGGUAGGCUUGCGCAAACCAGAAGGUACAUGAGGAUCACCCAUGUAAGCAUCCAGU [eternacac ex4r4 #4] (Eterna round: R97, puzzle: Brourd's mod of Exclusion 4) | 14.5
8. AAUUAGUAUGUGAGGAUAUUGAUGUAAUGACGGUUUAAGAAGGCACAUGAGGAUCACCCAUGUAGGUGCUCACG [JR_BMEx4_Sub007] (Eterna round: R97, puzzle: Brourd's mod of Exclusion 4) | 70.4

Quick batch: apparent KD of MS2 coat protein for everything below.
1. GAUCCUUUUACGGACGUCUCGAAACAUGAGGAUCACCCAUGUGAGGAUAUCUCCGAGAGAUCGGCAGAGAAGGCACAAUAACAA [MOD Eternabot solution 19 score 84.66] (Eterna round: R96, puzzle: Exclusion NG 3)
2. GCGGAGUCAGGAUAUUGAAUUUAACGUACCAAUUAGGUACGCGAGAAGGGACAUGAGGAUCACCCAUGUACCGC [Eli x4 4.03] (Eterna round: R97, puzzle: Exclusion 4)
3. GGCGGACAUGAGGAUCACCCAUGUAAGGAUAUUAGGCGAUCGUCGAUAGACGAUAGCCUGAGAAGGUACGCGCC [Mat - Exclusion 1 - Eli Mod - D14] (Eterna round: R97, puzzle: Exclusion 1)
4. ACAUGUCAUCGAGGAUAUUGGACACAUGAGGAUCACCCAUGUACUCGGAGGCUCUACUAUGAGUUCGAGAAGGCGAUGUACAUG [Ex NG2 #75] (Eterna round: R96, puzzle: Exclusion NG 2)
5. ACCUCCGCGAAGGAUAUUAGCACAUUGACAGAUUGAGAAGGUCGCACAUGAGGAUCACCCAUGUGAGGUCAUCC [Eternabot (L1) Solution 82] (Eterna round: R97, puzzle: Exclusion 6)
6. CUCUUGUCAGGAUAUCUUACAUAACAAUCGUAGUUACAAUUGGAGAAGGGACAUGAGGAUCACCCAUGUUAGCG [tap-tap-tappy34] (Eterna round: R97, puzzle: Exclusion 4)

50.3
15.9
17.1
49.9
21.5
149

Source: the supplement of paper PMC9170038
